System: Escherichia coli TOP10
Experiment: shrunken log2 fold change of peptide-encoding DNA abundance (4.5 h post-induction vs induction); higher = less antimicrobial activity (less host growth inhibition)
Conditions: time post-induction: 4.5 h; library: site-saturation at positions 5, 18, 19, 20
Lab note: compare shrunken log2 fold change against 0.03. Equal or greater, write Satisfied. Smaller, write Not satisfied.

- RRIRARPPRLPRPRPRPYSPPRP: Not satisfied
- RRIRRRPPRLPRPRPRPNVQPRP: Not satisfied
- RRIRTRPPRLPRPRPRPWWHPRP: Not satisfied
- RRIRMRPPRLPRPRPRPYEEPRP: Not satisfied
- RRIRFRPPRLPRPRPRPCNNPRP: Not satisfied
- RRIRFRPPRLPRPRPRPGMSPRP: Not satisfied
- RRIRRRPPRLPRPRPRPDFCPRP: Not satisfied
- RRIRKRPPRLPRPRPRPGFKPRP: Not satisfied
- RRIRTRPPRLPRPRPRPRCVPRP: Not satisfied
- RRIRQRPPRLPRPRPRPMIPPRP: Not satisfied
- RRIRERPPRLPRPRPRPICAPRP: Satisfied
- RRIRLRPPRLPRPRPRPARCPRP: Satisfied
- RRIRARPPRLPRPRPRPYGCPRP: Not satisfied
- RRIRHRPPRLPRPRPRPMYMPRP: Not satisfied
- RRIRIRPPRLPRPRPRPGVAPRP: Satisfied
- RRIRDRPPRLPRPRPRPCCPPRP: Not satisfied
- RRIRSRPPRLPRPRPRPAQYPRP: Satisfied
- RRIRRRPPRLPRPRPRPKRCPRP: Not satisfied
- RRIRSRPPRLPRPRPRPNRMPRP: Satisfied
- RRIRWRPPRLPRPRPRPVCGPRP: Satisfied
- RRIRWRPPRLPRPRPRPYHHPRP: Not satisfied
- RRIRNRPPRLPRPRPRPPQYPRP: Not satisfied
- RRIRDRPPRLPRPRPRPNDKPRP: Not satisfied
- RRIRTRPPRLPRPRPRPRADPRP: Satisfied
- RRIRMRPPRLPRPRPRPNQMPRP: Satisfied
- RRIRCRPPRLPRPRPRPLPQPRP: Satisfied
- RRIRPRPPRLPRPRPRPEPPPRP: Satisfied
- RRIRQRPPRLPRPRPRPCFWPRP: Satisfied
- RRIRTRPPRLPRPRPRPKPPPRP: Satisfied
- RRIRQRPPRLPRPRPRPKNKPRP: Not satisfied
- RRIRDRPPRLPRPRPRPEFGPRP: Satisfied
- RRIRHRPPRLPRPRPRPNYMPRP: Not satisfied

###

Tested on: Escherichia coli TOP10;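 further: peptides expressed intracellularly from a pBAD plasmid library in pooled LB shake-flask culture, induced with 0.3% L-arabinose, DNA abundance read by NGS, three biological replicates, DESeq2 with apeglm shrinkage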
Assay: shrunken log2 fold change of peptide-encoding DNA abundance (4.5 h post-induction vs induction); higher = less antimicrobial activity (less host growth inhibition)
Conditions: time post-induction: 4.5 h; library: site-saturation at positions 5, 18, 19, 20
measure: shrunken log2 fold change

• RRIRLRPPRLPRPRPRPQDQPRP = 0.14
• RRIRDRPPRLPRPRPRPQRDPRP = 0.0917
• RRIRLRPPRLPRPRPRPGKWPRP = 0.121
• RRIRYRPPRLPRPRPRPTLGPRP = -0.16
• RRIRMRPPRLPRPRPRPGITPRP = 0.133
• RRIRRRPPRLPRPRPRPENGPRP = 0.401
• RRIRIRPPRLPRPRPRPAFRPRP = 2.17
• RRIRTRPPRLPRPRPRPNYEPRP = -0.682
• RRIRWRPPRLPRPRPRPTNLPRP = -0.0698
• RRIRARPPRLPRPRPRPEKFPRP = -0.0388
• RRIRHRPPRLPRPRPRPARVPRP = 0.502
• RRIRLRPPRLPRPRPRPFQFPRP = -0.255
• RRIRSRPPRLPRPRPRPVPAPRP = 0.122
• RRIRTRPPRLPRPRPRPNQFPRP = -0.205
• RRIRSRPPRLPRPRPRPEHTPRP = 0.262
